Target: HDAC1 (Homo sapiens)
Sequence (Q13547 whole entry, species assumed): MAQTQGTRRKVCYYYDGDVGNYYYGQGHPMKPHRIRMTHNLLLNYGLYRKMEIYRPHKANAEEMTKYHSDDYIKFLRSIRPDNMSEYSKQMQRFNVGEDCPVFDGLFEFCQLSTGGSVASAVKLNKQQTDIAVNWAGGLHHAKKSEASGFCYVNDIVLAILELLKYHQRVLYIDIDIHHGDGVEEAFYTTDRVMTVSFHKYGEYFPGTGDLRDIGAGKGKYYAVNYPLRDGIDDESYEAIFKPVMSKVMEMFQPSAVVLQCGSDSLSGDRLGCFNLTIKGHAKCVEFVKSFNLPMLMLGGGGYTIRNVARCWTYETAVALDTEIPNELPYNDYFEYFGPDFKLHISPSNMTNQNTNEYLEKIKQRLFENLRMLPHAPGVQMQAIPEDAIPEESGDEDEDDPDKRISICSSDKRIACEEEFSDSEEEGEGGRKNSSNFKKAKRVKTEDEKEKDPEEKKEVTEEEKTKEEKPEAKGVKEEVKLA
reportedProperty: IC50 (nM)
Express it in nM; write the number only.

Task: Which IC50 value belongs to "Cc1nn(C)cc1CN1CCC(c2ccc(C(=O)Nc3ccccc3N)cc2)CC1" ?
Result: 63

Data provenance is patent US20210093625A1.
